- Tested on: maize HMG13 gene in maize A188 immature embryos
- assay_summary: Genome editing SDN-1 in regenerated T0 plants of maize A188 (Example 5)
- Type: cell-based
- condition_set: T0 events with mono-allelic SDN-1
- Experimental: Specifically, construct pGEP837 (SEQ ID NO: 52, FIG. 1) and the crRNA construct pGEP842 (SEQ ID NO: 53, FIG. 2) were co-bombarded with the different boosters as indicated into maize A188 immature embryos by particle bombardment. For each bombardment (shot), 100 ng of plasmid pGEP837 were cocoated with 150 ng of plasmid pGEP842 and 100 ng each of different boost constructs onto 100 μg of 0.4 μm gold particles using calcium-spermidine method. […]
measured_property: Mon-SDN-1

INSERT INTO results (molecule, recorded_result) VALUES
  ('RBP7: artificial regeneration booster protein, SEQ ID NO: 38 (CDS SEQ ID NO: 26), construct pABM-BdEF1_RBP7 (protein) MVSKGEEVIKEFSGSTRWNPTAEQLSLLKELYYRNGIRTPSADQIRQISARLSRYGKIEGKNVFYWFQNHKARERQKKRLSTVGCDPALIEMGNVASLEFGTESALESLSSGPSSELREAPTRKFYEKKTVGENSTIINPVEQNCTLSCGTSQEFQYAVDSRRVMKAMEEKQATDDEPDGNKWTESNRHVKTLPLFPLHNNVETLPLFPEDSGSLDLELELGFASGGSAGSVDTLPLFPREAAGSGEFATAAATSGSQRASALDLCLSLGNESCGLHDN', 1);
